test system: HaCaT cells (human immortal keratinocyte); assay: MTT assay, HaCaT normal cells; format: cell-based; conditions: Homo sapiens, HaCaT; MTT, 72 h, mean ± SD, normal cells
Could you please report measured pIC50 for the items listed next?
Field pIC50 (float): negative decimal logarithm of the concentration in molar.

Per the record, CC(=O)c1ccc(N2CCN(CCCCn3c(=O)c(Br)cn4c5c(=O)n(C)c(=O)n(C)c5nc34)CC2)cc1 [Compound 14] has pIC50 of 4.02

Per the record, COc1cccc2c1C(=O)c1c(O)c3c(c(O)c1C2=O)C[C@@](O)(C(=O)CO)C[C@@H]3O[C@H]1C[C@H](N)[C@H](O)[C@H](C)O1 [Doxorubicin, reference compound] has pIC50 of 6.62

Per the record, CC(=O)c1ccc(N2CCN(CCCCCN3C(=O)NC4(CCc5ccccc54)C3=O)CC2)cc1 (racemic) [Compound 2] has pIC50 of 4.65
